Biological target: Adenosine receptor A2b (Homo sapiens, UniProt P29275)
Sequence (P29275 whole entry): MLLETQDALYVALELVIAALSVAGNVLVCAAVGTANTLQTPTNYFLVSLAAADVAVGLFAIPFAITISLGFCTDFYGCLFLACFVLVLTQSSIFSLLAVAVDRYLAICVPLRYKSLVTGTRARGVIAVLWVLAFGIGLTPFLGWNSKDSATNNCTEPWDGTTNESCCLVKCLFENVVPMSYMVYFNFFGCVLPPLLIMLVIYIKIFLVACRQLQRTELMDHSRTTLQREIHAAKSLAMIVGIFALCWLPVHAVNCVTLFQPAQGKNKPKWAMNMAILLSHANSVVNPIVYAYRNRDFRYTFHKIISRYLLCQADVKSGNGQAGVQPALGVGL
Assay: Displacement of [3]DPCPX from human adenosine A2B receptor expressed in HEK293 cells
Format: cell-based
// values below are reported Ki
Please respond with the number in nM and leave the unit unwritten.

smiles_input=O=C(CCc1ccccc1)Nc1nc2ccccc2n2nc(-c3ccco3)nc12 metric=Ki measured_result=501
smiles_input=O=C(Nc1nc2ccccc2n2nc(-c3ccco3)nc12)c1ccco1 metric=Ki measured_result=2510
smiles_input=COCCCNc1nc2ccccc2n2nc(-c3ccco3)nc12 metric=Ki measured_result=427

Shift focus to the following entry.
Task: Recorded Ki of c1coc(-c2nc3c(OCc4ccoc4)nc4ccccc4n3n2)c1 , please.
Output: 145

Source of measurements: ChEMBL document CHEMBL1143971
